B1: Zinc finger homeobox protein 3, residues 2244 to 2299; numbered along this chain, Q15911 (parent)
chain: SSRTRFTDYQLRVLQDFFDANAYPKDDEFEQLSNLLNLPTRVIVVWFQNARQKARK

Variants of: B1
method: abundance fitness (aPCA) (normalised: wild type 0, dead -1); higher = more abundant; growth selection in yeast, the domain comes from the species named
condition_parameters: Homo sapiens
measured_endpoint: abundance fitness

SSRTRFTDYQLRVLQDFFDANAYPKDDEFEQLSCLLNLPTRVIVVWFQNARQKARK [N34C] | -0.343
SSRTRITDYQLRVLQDFFDANAYPKDDEFEQLSNLLNLPTRVIVVWFQNARQKARK [F6I] | -0.164
SSRTRFTDYQLRVFQDFFDANAYPKDDEFEQLSNLLNLPTRVIVVWFQNARQKARK [L14F] | -0.768
SSRTRFTDYQLRVLQDFFDANAYPKDDEFEQLSNLQNLPTRVIVVWFQNARQKARK [L36Q] | -0.988
SSRTRFTDYQLRVLQSFFDANAYPKDDEFEQLSNLLNLPTRVIVVWFQNARQKARK [D16S] | -0.023
SSRTRFTDYQLRVLQDFFDANTYPKDDEFEQLSNLLNLPTRVIVVWFQNARQKARK [A22T] | 0.01
SKRTRFTDYQLRVLQDFFDANAYPKDDEFEQLSNLLNLPTRVIVVWFQNARQKARK [S2K] | -0.194
SSRTAFTDYQLRVLQDFFDANAYPKDDEFEQLSNLLNLPTRVIVVWFQNARQKARK [R5A] | 0.213
SSRTRFTDYQLRVLQDFFDANAYPKDGEFEQLSNLLNLPTRVIVVWFQNARQKARK [D27G] | 0.095
SSRTRFTDYQLRVLQDFFDINAYPKDDEFEQLSNLLNLPTRVIVVWFQNARQKARK [A20I] | -0.405
SSRTRFTDYQLRVLQDFFDANAYVKDDEFEQLSNLLNLPTRVIVVWFQNARQKARK [P24V] | -0.657
SSRTRFTDYQLRVLQDFFDANAYPKDDEFEQLSNLLNCPTRVIVVWFQNARQKARK [L38C] | -0.451
SSRTRFTDYQLRVLQDFFDANAYPKDDEFEQLQNLLNLPTRVIVVWFQNARQKARK [S33Q] | -0.507
SSRTRFTDYQLRVLYDFFDANAYPKDDEFEQLSNLLNLPTRVIVVWFQNARQKARK [Q15Y] | -0.559
SSRTRFTDYQLRVLQDFFDANAYPKDDEFEQLSNLLNTPTRVIVVWFQNARQKARK [L38T] | -0.166
SSRTRFTDYQLRVLNDFFDANAYPKDDEFEQLSNLLNLPTRVIVVWFQNARQKARK [Q15N] | -0.077
SSRTRFTDYQLRVWQDFFDANAYPKDDEFEQLSNLLNLPTRVIVVWFQNARQKARK [L14W] | -0.946
SSRTKFTDYQLRVLQDFFDANAYPKDDEFEQLSNLLNLPTRVIVVWFQNARQKARK [R5K] | 0.29
SSRPRFTDYQLRVLQDFFDANAYPKDDEFEQLSNLLNLPTRVIVVWFQNARQKARK [T4P] | -0.154
SSRTRFTDYQLRVLQDFFDANAYPKDDEQEQLSNLLNLPTRVIVVWFQNARQKARK [F29Q] | -0.435
SSRTRFTDYQLRVLGDFFDANAYPKDDEFEQLSNLLNLPTRVIVVWFQNARQKARK [Q15G] | -0.01
SSITRFTDYQLRVLQDFFDANAYPKDDEFEQLSNLLNLPTRVIVVWFQNARQKARK [R3I] | 0.108
